Experiment: chemical genetic growth profiling, strain panel (AID 1159580);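 further: tested at 20 µM; growth read once vehicle control cultures reached saturation at 30 °C; lower values mean less growth of the strain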
Conditions: S. cerevisiae deletion strains, growth OD, locus YGL167C, strain pmr1
Hit rate of the full screen: of about 5,500 compounds, about 2,000 (36%) were called active. Another 18% or so got no clear call; they are omitted. No stated cut-off is given here; in the data, active means normalized growth mostly below about 0.91 (no sharp cut-off); inconclusive means no clear call, values can overlap the other calls; inactive means mostly above about 0.92. This is one part of the list.
Labels: TRUE (active), FALSE (inactive)

1) C[C@]12C=CC(=O)C=C1CCC1C2C(=O)C[C@@]2(C)C1CC[C@]2(O)C(=O)CO (some centres not stated)
FALSE
2) CCS(=O)(=O)CCn1c([N+](=O)[O-])cnc1C
FALSE
3) C[C@]12CCC3C(CC[C@H]4C[C@@H](O)CC[C@]34C)C1CCC2=O (some centres not stated)
FALSE
4) C[C@]12C=CC(=O)C=C1CCC1C2CC[C@]2(C)C(=O)CCC12 (some centres not stated)
FALSE
5) CC(C)CCCC(C)[C@H]1CCC2C3CC[C@H]4CC(=O)CC[C@]4(C)C3CC[C@@]21C (some centres not stated)
FALSE
6) O=C1c2ccccc2C(=O)c2c(O)c(O)cc(O)c21
TRUE
7) Fc1ccc(C(c2ccc(F)cc2)N2CCN(C/C=C/c3ccccc3)CC2)cc1
FALSE
8) O=C(CCCN1CC=C(n2c(=O)[nH]c3ccccc32)CC1)c1ccc(F)cc1
FALSE
9) OC[C@@H](O)C(O[C@@H]1O[C@H](CO)[C@H](O)[C@H](O)[C@H]1O)[C@H](O)[C@@H](O)CO (some centres not stated)
FALSE
10) Cc1cc(O)c2c(c1O)C(=O)c1c(O)cc(C)c(O)c1C2=O
FALSE
11) C[C@]12CCC3C(CC[C@H]4CC(=O)CC[C@]34C)C1CCC2=O (some centres not stated)
FALSE
12) COc1c2occc2cc2ccc(=O)oc12
FALSE
13) C=C1CC2C(CCC3(C)C(=O)CCC23)C2(C)C=CC(=O)C=C12 (configuration not stated)
FALSE
14) N#C/C(=C\c1ccc(O)cc1)C(=O)O
FALSE
15) O=C(O)c1cc2cc(Cl)ccc2[nH]1
FALSE
16) COc1cc(O)c(C)c(O)c1
FALSE
17) COc1ccc(Cc2nccc3cc(OC)c(OC)cc23)cc1OC
FALSE
18) O=c1[nH]c2ccccc2n1CCCN1CCC(n2c(=O)[nH]c3cc(Cl)ccc32)CC1
FALSE
19) O=c1[nH]c2ccccc2n1C1CCN(CCCC(c2ccc(F)cc2)c2ccc(F)cc2)CC1
FALSE
20) O=c1n(CCCN2CCN(c3cccc(Cl)c3)CC2)nc2ccccn12
FALSE
21) COc1cc2ccc(=O)oc2c(OC)c1OC
FALSE
22) Cn1c(=O)[nH]c(=O)c2[nH]cnc21
FALSE
23) CC(C)(O)CC[C@@H](O)[C@](C)(O)C1CC[C@@]2(O)C3=CC(=O)C4C[C@@H](O)[C@@H](O)C[C@]4(C)C3CC[C@]12C (some centres not stated)
FALSE
24) CC(C)=CCC1=C(O)c2ccccc2C(=O)C1=O
TRUE
25) O=C1OC(=O)C2C3CCC(O3)C12 (configuration not stated)
FALSE
26) CC(=O)OC1CCC23C(=O)OC45CCC(C6=CC(=O)OC6)C4(C)CCC2C5CCC3(O)C1 (configuration not stated)
FALSE
27) Cc1cc(C)nc(NS(=O)(=O)c2ccc(N)cc2)n1
FALSE
28) COC(=O)C1=CO[C@@H](O[C@@H]2O[C@H](CO)[C@@H](O)[C@H](O)[C@H]2O)[C@@H]2[C@@H](C)[C@@H](O)C[C@H]12
FALSE
29) COc1c(O)cc(O)cc1O
FALSE
30) CCNc1nc(Cl)nc(NC(C)C)n1
FALSE
31) O=c1ccc2ccc(O)c(O)c2o1
FALSE
32) COc1ccc2[nH]cc(CCNC(C)=O)c2c1
FALSE

Hey, just so you know, these numbers are from PubChem BioAssay AID1159580.
